Sourced from patent US8895526B2

# Test system: tet-on competent MLL/AF9+Nras AML
# TEST NAME: Pooled negative selection RNAi screening (deep sequencing)
# Format: cell-based, mouse
# EXPERIMENTAL CONTEXT: deep sequencing reads, On Dox compared to T0
READOUT NAME: Fold depletion in AML

molecule="Map2k1.2337: neutral control shRNA, SEQ ID NO: 204 (nucleic acid) TGCTGTTGACAGTGAGCGCCAAGATGTTTATCAAATCTAATAGTGAAGCCACAGATGTATTAGATTTGATAAACATCTTGATGCCTACTGCCTCGGA" assay_value="0.24 Fold"
molecule="Rock2.3898: shRNA, SEQ ID NO: 174 (nucleic acid) TGCTGTTGACAGTGAGCGCCAGATTCTATATGCCAATGAATAGTGAAGCCACAGATGTATTCATTGGCATATAGAATCTGATGCCTACTGCCTCGGA" assay_value="8.10 Fold"
molecule="Cpd.1693: shRNA, SEQ ID NO: 109 (nucleic acid) TGCTGTTGACAGTGAGCGCACCAGGTGAACCAGAATTTAATAGTGAAGCCACAGATGTATTAAATTCTGGTTCACCTGGTTTGCCTACTGCCTCGGA" assay_value="50.07 Fold"
molecule="Gart.2713: shRNA, SEQ ID NO: 127 (nucleic acid) TGCTGTTGACAGTGAGCGAACCAGGGTAATTAATCACAAATAGTGAAGCCACAGATGTATTTGTGATTAATTACCCTGGTGTGCCTACTGCCTCGGA" assay_value="8.73 Fold"
